Listed compounds paired with reported pEC50
Target: AMPK
Test: AMPK activation, enzyme-linked immunosorbent assay
Format: biochemical
Conditions: Table 13, compounds of Table 6
pEC50: −log10 of the molar value.

As a guide, the following entries are already answered.
N#Cc1ccc(CN2CCC(NC(=O)c3cc4cc(NC(=O)c5ccc(-n6cccn6)cc5)ccc4o3)CC2)cc1 [Compound 6-65]	6.00 to 7.00
N#Cc1ccc(CN2CCC(NC(=O)c3cc4cc(C(=O)N5CCN(Cc6ccc(N7CCCC7)cc6)CC5)ccc4o3)CC2)cc1 [Compound 6-80]	> 7.00
Cc1nnsc1C(=O)Nc1ccc2oc(C(=O)NC3CCN(Cc4ccc(C#N)cc4)CC3)cc2c1 [Compound 6-56]	5.00 to 6.00

### Prompt For the compound N#Cc1ccc(CN2CCC(NC(=O)c3cc4cc(NC(=O)c5ccc(N6CCCC6)cc5)ccc4o3)CC2)cc1 [Compound 6-68] , what pEC50 is on record?
### Response 6.00 to 7.00

###

Listed compounds paired with reported pEC50
Molecular target: AMPK
Test: AMPK activation, enzyme-linked immunosorbent assay
Assay type: biochemical
Conditions: Table 8, compounds of Table 1
pEC50: −log10 of the molar value.

N#Cc1ccccc1CN1CCC(NC(=O)c2cc3ccc(OC4CCN(c5ccc(C(F)(F)F)cc5)CC4)cc3o2)CC1 [Compound 1-98]	> 7.00
CC(C)(C)OC(=O)N1CCC(NC(=O)c2cc3cc(OC4CCN(c5ccc(C(F)(F)F)cc5)CC4)ccc3o2)CC1 [Compound 1-85]	6.00 to 6.30
O=C(NC1CCN(Cc2ccncc2)CC1)c1cc2ccc(OC3CCN(c4ccc(OC(F)(F)F)cc4)CC3)cc2o1 [Compound 1-88]	> 7.00
O=C(N[C@@H]1CCN(S(=O)(=O)c2cccnc2)C1)c1cc2cc(OC3CCN(c4ccc(C(F)(F)F)cc4)CC3)ccc2o1 [Compound 1-126]	5.30 to 6.00
CC(C)(C)OC(=O)N1CC[C@H](NC(=O)c2cc3cc(OC4CCN(Cc5ccc(Cl)cc5)CC4)ccc3o2)C1 [Compound 1-127]	5.30 to 6.00
FC(F)(F)c1ccc(N2CCC(Oc3ccc4c(c3)CCC4NC3CCN(Cc4ccncc4)CC3)CC2)cc1 (stereo not shown) [Compound 1-158]	6.30 to 7.00

Next compound, please.
### Prompt AMPK / pEC50 / N#Cc1ccc(CN2CCC(NC(=O)c3sc4cc(OC5CCN(c6ccc(C(F)(F)F)cc6)CC5)ccc4c3Cl)CC2)cc1 [Compound 1-154] : value?
### Response > 7.00

###

Listed compounds paired with reported pEC50
Target: AMPK
Assay: AMPK activation, enzyme-linked immunosorbent assay
Format: biochemical
Conditions: Table 8, compounds of Table 1
pEC50: −log10 of the molar value.

As a guide, the following entries are already answered.
O=C(NC1CCN(Cc2ccncc2)CC1)c1cc2ccc(OC3CCN(c4ccc(C(F)(F)F)cc4)CC3)cc2o1	> 7.00
O=C(NC1CCNCC1)c1cc2ccc(OC3CCN(c4ccc(C(F)(F)F)cc4)CC3)cc2s1	6.30 to 7.00
N#Cc1ccccc1CN1CCC(NC(=O)c2cc3ccc(OC4CCN(c5ccc(C(F)(F)F)cc5)CC4)cc3s2)CC1	6.30 to 7.00

Next compound, please.
### Prompt For the compound `Cc1c(C(=O)NC2CCNCC2)oc2cc(OC3CCN(c4ccc(C(F)(F)F)cc4)CC3)ccc12` , what pEC50 is on record?
### Response 5.00 to 5.30
